biological target: CYP2D6 (Homo sapiens)
Sequence (P10635 whole entry): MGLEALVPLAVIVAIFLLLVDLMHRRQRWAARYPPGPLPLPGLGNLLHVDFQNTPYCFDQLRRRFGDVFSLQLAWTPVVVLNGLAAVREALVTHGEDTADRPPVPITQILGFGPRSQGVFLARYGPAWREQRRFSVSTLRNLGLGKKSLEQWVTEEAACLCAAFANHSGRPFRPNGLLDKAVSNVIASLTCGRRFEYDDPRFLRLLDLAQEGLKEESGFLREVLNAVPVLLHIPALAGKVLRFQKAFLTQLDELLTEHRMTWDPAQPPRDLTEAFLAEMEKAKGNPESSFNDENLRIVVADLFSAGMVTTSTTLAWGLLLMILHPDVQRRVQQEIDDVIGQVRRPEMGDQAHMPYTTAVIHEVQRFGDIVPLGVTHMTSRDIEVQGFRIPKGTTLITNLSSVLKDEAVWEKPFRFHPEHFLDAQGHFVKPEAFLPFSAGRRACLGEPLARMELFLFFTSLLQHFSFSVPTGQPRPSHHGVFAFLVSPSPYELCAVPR
Quick reference for IC50 among some molecules

| MOLECULE | MEASURED_VALUE |
| --- | --- |
| O=C(Cc1ccc(NC(=O)c2cccc(Cl)n2)cc1)NCc1ccccc1 [Compound 4n] | > 10 µM |

We next turn to a different molecule, shown below.
I'd like to know its IC50. The molecule in question is O=C(Cc1ccc(NC(=O)c2cccc(Cl)c2)cc1)NCc1ccccc1 [Compound 4e] > 10 µM

---

test system: K562 leukemia cell line; assay: CellTiter-Blue cell viability assay, K562; type: cell-based; details: Homo sapiens, CellTiter-Blue, 48 h, maximum tested concentration 20 µM, read-out: IC50 ± SEM, K562
OBSERVATION_TYPE: IC50

| SMILES_RECORD | IC50 |
| --- | --- |
| O=C(Cc1ccc(NC(=O)c2cccc(Cl)c2)cc1)NCCc1ccccc1 | > 20 µM |

Query: IC50; subject: O=C(Cc1ccc(NC(=O)c2cccc(Cl)n2)cc1)NCc1ccccc1 2.69 µM

Data request, read-out IC50, for O=C(Cc1ccc(NC(=O)c2cccc(Cl)c2)cc1)NCc1ccco1 > 20 µM

Sample O=C(Cc1ccc(NC(=O)c2ccc(Cl)o2)cc1)NCc1ccccc1 — what was its IC50? > 20 µM

# input compound: CCC(=O)Nc1ccc(CC(=O)NCc2ccccc2)cc1 ; wanted: its IC50 > 20 µM

Record request: IC50 value, item O=C(Cc1ccc(NC(=O)c2cccc(Cl)c2)cn1)NCc1ccccc1 4 µM
